Origin of the recorded values: patent US20240400708A1

// reported pKd for each item listed
- assayed system: feline FcRn complex (FcRn-α subunit and β-microglobulin), biotin labeled (feline)
- assay text: SPR, pH 6
// field semantics: pKd = negative decimal log of concentration (mol/L)

[[record]]
binder = "feline IgG1a S252L (antibody, part only; not given: Variable domains, not shown: another chain or arm of the molecule) constant: ASTTAPSVFPLAPSCGTTSGATVALACLVLGYFPEPVTVSWNSGALTSGVHTFPAVLQASGLYSLSSMVTVPSSRWLSDTFTCNVAHPPSNTKVDKTVRKTDHPPGPKPCDCPKCPPPEMLGGPSIFIFPPKPKDTLLISRTPEVTCLVVDLGPDDSDVQITWFVDNTQVYTAKTSPREEQFNSTYRVVSVLPILHQDWLKGKEFKCKVNSKSLPSPIERTISKAKGQPHEPQVYVLPPAQEELSRNKVSVTCLIKSFHPPDIAVEWEITGQPEPENNYRTTPPQLDSDGTYFVYSKLSVDRSHWQRGNTYTCSVSHEALHSHHTQKSLTQSPGK"
assay_readout = "pKd"
numeric_value = 7.15


Q: Provide only the value of recorded pKd for feline IgG1a S428T (antibody, part only; not given: Variable domains, not shown: another chain or arm of the molecule; small tags and cut ends) constant: ASTTAPSVFPLAPSCGTTSGATVALACLVLGYFPEPVTVSWNSGALTSGVHTFPAVLQASGLYSLSSMVTVPSSRWLSDTFTCNVAHPPSNTKVDKTVRKTDHPPGPKPCDCPKCPPPEMLGGPSIFIFPPKPKDTLSISRTPEVTCLVVDLGPDDSDVQITWFVDNTQVYTAKTSPREEQFNSTYRVVSVLPILHQDWLKGKEFKCKVNSKSLPSPIERTISKAKGQPHEPQVYVLPPAQEELSRNKVSVTCLIKSFHPPDIAVEWEITGQPEPENNYRTTPPQLDSDGTYFVYSKLSVDRSHWQRGNTYTCSVTHEALHSHHTQKSLTQSPGK
Result: 7.56
